Target: GPR139 E108A3x29 +E105A3x32 (Homo sapiens, UniProt Q6DWJ6, E105A/E108A)
Construct: mGluR5 signal peptide (N)
Sequence (Q6DWJ6 2-353 E105A/E108A limits assumed): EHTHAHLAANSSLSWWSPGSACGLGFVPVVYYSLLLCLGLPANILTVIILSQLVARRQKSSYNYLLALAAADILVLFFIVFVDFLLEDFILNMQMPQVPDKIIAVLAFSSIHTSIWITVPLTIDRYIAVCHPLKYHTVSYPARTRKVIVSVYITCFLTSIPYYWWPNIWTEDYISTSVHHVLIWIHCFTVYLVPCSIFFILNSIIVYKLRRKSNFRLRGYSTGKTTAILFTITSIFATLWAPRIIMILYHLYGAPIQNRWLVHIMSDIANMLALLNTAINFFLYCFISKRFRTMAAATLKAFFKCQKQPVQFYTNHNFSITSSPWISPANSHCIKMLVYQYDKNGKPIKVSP
Test: Fluo-4 Ca2+-assay, GPR139 double mutant E105A_E108A

smilesNotation: COc1cc(OC)cc(C(=O)NNC(=O)Nc2cccc3ccccc23)c1
testedOn: GPR139 E108A3x29 +E105A3x32 (Homo sapiens, UniProt Q6DWJ6, E105A/E108A)
resultUnits: nM
EC50: 200

====

This listing pairs molecules with measured EC50.
target: myc-GPR139(WT) (Homo sapiens); construct: mGluR5 signal peptide (N); expressed in transfected cells; host or cells: HEK293; assay: Fluo-4 Ca2+-assay, myc-tagged wild-type GPR139 in HEK293; assay type: cell-based; details: WT, Fluo-4 Ca2+-assay, HEK293, three independent experiments; read-out: pEC50 ± SEM (converted)
parameterMeasured: EC50 (µM)

molecule: N[C@@H](Cc1ccccc1)C(=O)O [L-Phe, phenylalanine]
quantitativeReadout: 372
//
molecule: C[C@@H](NC(=O)CNC(=O)c1cccc(Cl)c1)c1ccccc1 (racemic) [Compound 7c]
quantitativeReadout: 0.0479
//
molecule: COc1cc(OC)cc(C(=O)NNC(=O)Nc2cccc3ccccc23)c1 [Compound 1a]
quantitativeReadout: 0.234
//
molecule: N[C@@H](Cc1c[nH]c2ccccc12)C(=O)O [L-Trp, tryptophan]
quantitativeReadout: 200
